Entry source: patent US20250120927A1

# studyTarget: CNDP2 (Homo sapiens (Human))
# assayProtocol: CNDP2 enzyme inhibition assay (Met-His hydrolysis, free histidine by o-phthaldialdehyde fluorescence), dose-response
# Assay type: biochemical
# particulars: 50 nM purified CNDP2 (Sino Biological), 1 mM Met-His substrate, 30 minutes at 37° C.; TABLE 2
quantityKind: IC50

> print(dat)
                                   compound  quantitykind    result
1  N[C@H](Cc1ccccc1)[C@H](O)C(=O)NC(C(=O)O)c1cc(F)cc(C(F)(F)F)c1 (stereo partly drawn)          IC50  < 100 nM

# input compound: `C[C@@](NC(=O)[C@@H](O)[C@H](N)Cc1ccccc1)(C(=O)O)c1cccc(OC(F)(F)F)c1` ; wanted: its IC50
≥ 1000 nM

# input compound: `N[C@H](Cc1ccc(Cl)cc1)[C@H](O)C(=O)N[C@@H](C(=O)O)c1cccc(OC(F)(F)F)c1` ; wanted: its IC50
≥ 1000 nM

# input compound: `N[C@H](Cc1ccccc1)[C@H](O)C(=O)N[C@H](C(=O)O)c1ccc(F)c(C(F)(F)F)c1F` ; wanted: its IC50
100 to 1000 nM

# input compound: N[C@H](Cc1ccc(C(F)(F)F)cc1)[C@H](O)C(=O)N[C@@H](C(=O)O)c1cccc(OC(F)(F)F)c1 [Compound 134] ; wanted: its IC50
≥ 1000 nM

###

# studyTarget: CNDP2 (Homo sapiens (Human), UniProt Q96KP4)
# Sequence (Q96KP4 whole entry): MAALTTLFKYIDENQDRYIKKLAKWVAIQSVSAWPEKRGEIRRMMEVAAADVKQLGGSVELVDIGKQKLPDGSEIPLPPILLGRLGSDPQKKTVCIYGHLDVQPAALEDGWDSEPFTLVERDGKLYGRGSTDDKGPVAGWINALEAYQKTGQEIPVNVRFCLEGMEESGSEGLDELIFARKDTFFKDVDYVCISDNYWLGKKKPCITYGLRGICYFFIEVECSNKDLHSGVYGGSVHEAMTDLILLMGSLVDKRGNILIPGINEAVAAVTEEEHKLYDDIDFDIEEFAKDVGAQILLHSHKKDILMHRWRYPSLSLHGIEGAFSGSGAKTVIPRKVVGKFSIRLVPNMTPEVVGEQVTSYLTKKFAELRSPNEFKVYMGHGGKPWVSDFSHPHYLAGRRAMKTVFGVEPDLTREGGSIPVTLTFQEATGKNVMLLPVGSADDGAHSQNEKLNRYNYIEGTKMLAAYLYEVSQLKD
# assayProtocol: CNDP2 enzyme inhibition assay (Met-His hydrolysis, free histidine by o-phthaldialdehyde fluorescence), dose-response
# Type: biochemical
# particulars: 50 nM purified CNDP2 (Sino Biological), 1 mM Met-His substrate, 30 minutes at 37° C.; TABLE 2
pIC50: −log10 of the molar value.
quantityKind: pIC50

> print(dat)
                                   compound  result
1  N[C@H](Cc1ccccc1)[C@H](O)C(=O)N[C@@H](CN1CCC(C(F)(F)F)CC1)C(=O)O  ≤ 6.00
2  N[C@H](Cc1ccccc1)[C@H](O)C(=O)N[C@@H](Cc1cccc(OC(F)(F)F)c1)C(=O)O  > 7.00
3  N[C@H](Cc1ccccc1)[C@H](O)C(=O)NC(CN1CCC(F)(F)CC1)C(=O)O (stereo partly shown)  ≤ 6.00

# input compound: `N[C@H](Cc1ccccc1)[C@H](O)C(=O)N[C@@H](Cc1ccc(OC(F)(F)F)cc1)C(=O)O` ; wanted: its pIC50
≤ 6.00

# input compound: N[C@H](Cc1ccccc1)[C@H](O)C(=O)NC(C(=O)O)c1cc(C(F)(F)F)cc(C(F)(F)F)c1 (stereo partly shown) ; wanted: its pIC50
≤ 6.00

# input compound: `N[C@H](Cc1ccccc1)[C@H](O)C(=O)N[C@@H](Cc1ccc(F)c(OC(F)(F)F)c1)C(=O)O` ; wanted: its pIC50
≤ 6.00

# input compound: `N[C@H](Cc1ccccc1)[C@H](O)C(=O)N[C@H](C(=O)O)c1cccc(C(F)(F)F)c1Cl` ; wanted: its pIC50
6.00 to 7.00

###

# studyTarget: CNDP2 (Homo sapiens (Human), UniProt Q96KP4)
# assayProtocol: CNDP2 enzyme inhibition assay (Met-His hydrolysis, free histidine by o-phthaldialdehyde fluorescence), dose-response
# Format: biochemical
# particulars: bestatin 10 microM down to 5 pM; consistent across run days
quantityKind: IC50

# input molecule: CC(C)C[C@H](NC(=O)[C@@H](O)[C@H](N)Cc1ccccc1)C(=O)O [bestatin, reference compound] ; wanted: its IC50
~2000 nM

###

# studyTarget: CNDP2 (Homo sapiens (Human))
# assayProtocol: CNDP2 enzyme inhibition assay (Met-His hydrolysis, free histidine by o-phthaldialdehyde fluorescence), dose-response
# Format: biochemical
# particulars: 50 nM purified CNDP2 (Sino Biological), 1 mM Met-His substrate, 30 minutes at 37° C.; TABLE 1
quantityKind: IC50

Use these answered entries as a reference point.
> print(dat)
                                   compound  quantitykind     result
1  N[C@H](Cc1ccccc1)[C@H](O)C(=O)N[C@@H](Cc1ccccc1C(F)(F)F)C(=O)O [Compound 11]          IC50  ≥ 1000 nM
2  COc1ccccc1[C@H](NC(=O)[C@@H](O)[C@H](N)Cc1ccccc1)C(=O)O [Compound 8]          IC50  ≥ 1000 nM
3  N[C@H](Cc1ccccc1)[C@H](O)C(=O)NC(C(=O)O)c1ccccc1 (stereo partly shown) [Compound 3]          IC50  ≥ 1000 nM

# input compound: N[C@H](Cc1ccccc1)[C@H](O)C(=O)NC(C(=O)O)c1cccc(C(F)(F)F)c1 (stereo partly shown) [Compound 10] ; wanted: its IC50
< 100 nM

###

# studyTarget: CNDP2 (Homo sapiens (Human))
# assayProtocol: CNDP2 enzyme inhibition assay (Met-His hydrolysis, free histidine by o-phthaldialdehyde fluorescence), dose-response
# Format: biochemical
# particulars: 50 nM purified CNDP2 (Sino Biological), 1 mM Met-His substrate, 30 minutes at 37° C.; TABLE 1
pIC50: −log10 of the molar value.
quantityKind: pIC50

Use these answered entries as a reference point.
> print(dat)
                                   compound  result
1  N[C@H](Cc1ccccc1)[C@H](O)C(=O)NC1(C(=O)O)CCCC1  ≤ 6.00
2  N[C@H](Cc1ccccc1)[C@H](O)C(=O)N[C@H](C(=O)NO)c1cccc(OC(F)(F)F)c1 [Compound 52]  ≤ 6.00
3  CC(C)C[C@H](NC(=O)[C@@H](O)[C@H](N)Cc1cccc(Br)c1)C(=O)O  ≤ 6.00

What value of pIC50 on CNDP2 (Homo sapiens (Human)) does `N[C@H](Cc1ccccc1)[C@H](O)C(=O)N[C@H](C(=O)O)c1cccc(OC(F)(F)F)c1` have?
> 7.00

What value of pIC50 on CNDP2 (Homo sapiens (Human)) does `NC(=O)[C@@H](NC(=O)[C@@H](O)[C@H](N)Cc1ccccc1)c1cccc(OC(F)(F)F)c1` have?
≤ 6.00

What value of pIC50 on CNDP2 (Homo sapiens (Human)) does `N[C@H](Cc1ccccc1)[C@H](O)C(=O)N[C@H](C(=O)O)C1CCC1` have?
≤ 6.00

What value of pIC50 on CNDP2 (Homo sapiens (Human)) does `N[C@H](Cc1ccc(Cl)cc1)[C@H](O)C(=O)N[C@H](C(=O)O)c1cccc(C(F)(F)F)c1` have?
> 7.00

What value of pIC50 on CNDP2 (Homo sapiens (Human)) does N[C@H](Cc1ccccc1)[C@H](O)C(=O)NC(C(=O)O)C1CCCCCC1 (some centres unmarked) have?
6.00 to 7.00

###

We begin with a simple list: items and their reported pIC50.
# studyTarget: CNDP2 (Homo sapiens (Human))
# assayProtocol: CNDP2 enzyme inhibition assay (Met-His hydrolysis, free histidine by o-phthaldialdehyde fluorescence), dose-response
# Format: biochemical
# particulars: 50 nM purified CNDP2 (Sino Biological), 1 mM Met-His substrate, 30 minutes at 37° C.; TABLE 1
pIC50: −log10 of the molar value.

> print(dat)
                                   compound                   studytarget  quantitykind  result
1  N[C@H](Cc1ccccc1)[C@H](O)C(=O)NC(CC1CC(F)(F)C1)C(=O)O (stereo partly shown)  CNDP2 (Homo sapiens (Human))         pIC50  ≤ 6.00

# input compound: NC(=O)C(NC(=O)[C@@H](O)[C@H](N)Cc1ccccc1)c1cccc(C(F)(F)F)c1 (stereo partly shown) ; wanted: its pIC50
≤ 6.00

# input compound: `N[C@H](Cc1ccccc1OC(F)(F)F)[C@H](O)C(=O)N[C@H](C(=O)O)c1cccc(OC(F)(F)F)c1` ; wanted: its pIC50
6.00 to 7.00

# input compound: `N[C@H](Cc1ccccc1)[C@H](O)C(=O)N[C@H](C(=O)O)c1cccnc1` ; wanted: its pIC50
≤ 6.00

###

# studyTarget: CNDP2 (Homo sapiens (Human))
# assayProtocol: CNDP2 enzyme inhibition assay (Met-His hydrolysis, free histidine by o-phthaldialdehyde fluorescence), dose-response
# Format: biochemical
# particulars: 50 nM purified CNDP2 (Sino Biological), 1 mM Met-His substrate, 30 minutes at 37° C.; TABLE 1
pIC50: −log10 of the molar value.
We begin with a simple list: items and their reported pIC50.

Use these answered entries as a reference point.
> print(dat)
                                    compound  quantitykind        result
 1  CC(c1ccccc1)[C@H](NC(=O)[C@@H](O)[C@H](N)Cc1ccccc1)C(=O)O (some centres unmarked)         pIC50        ≤ 6.00
 2  CS(=O)(=O)NC(=O)C(NC(=O)[C@@H](O)[C@H](N)Cc1ccccc1)c1cccc(C(F)(F)F)c1 (some centres unmarked)         pIC50        ≤ 6.00
 3  CC(C)C[C@H](NC(=O)[C@@H](O)[C@H](N)Cc1ccccc1)C(=O)O [bestatin, reference compound]         pIC50        ≤ 6.00
 4  CC(C)C[C@H](NC(=O)[C@@H](O)[C@H](N)Cc1ccccc1Br)C(=O)O         pIC50        ≤ 6.00
 5  N[C@H](Cc1ccccc1)[C@H](O)C(=O)N[C@H](C(=O)O)C1CCOCC1         pIC50        ≤ 6.00
 6  N[C@H](Cc1ccccc1)[C@H](O)C(=O)N[C@H](C(=O)NO)c1cccc(OC(F)(F)F)c1 [Compound 53]         pIC50  6.00 to 7.00
 7  NC(Cc1cccc(OC(F)(F)F)c1)C(O)C(=O)N[C@H](C(=O)O)c1cccc(OC(F)(F)F)c1 (some centres unmarked)         pIC50        ≤ 6.00
 8  N[C@H](Cc1ccccc1)[C@H](O)C(=O)N[C@H](C(=O)O)C1CCCCC1         pIC50  6.00 to 7.00
 9  N[C@H](Cc1ccccc1)[C@H](O)C(=O)N[C@H](C(=O)O)C1CCCC1         pIC50  6.00 to 7.00
10  N[C@H](Cc1ccccc1)[C@H](O)C(=O)NC(c1cccc(C(F)(F)F)c1)c1n[nH]c(=O)o1 (some centres unmarked)         pIC50        > 7.00

# input compound: `N[C@H](Cc1ccccc1)[C@H](O)C(=O)N[C@@H](Cc1cccc(Br)c1)C(=O)O` ; wanted: its pIC50
≤ 6.00

# input compound: N[C@H](Cc1ccccc1)[C@H](O)C(=O)NC(C(=O)O)c1ccccc1C(F)(F)F (some centres unmarked) ; wanted: its pIC50
≤ 6.00

# input compound: N[C@H](Cc1ccccc1)[C@H](O)C(=O)NC(c1cccc(C(F)(F)F)c1)c1nnn[nH]1 (some centres unmarked) ; wanted: its pIC50
≤ 6.00

# input compound: N[C@H](Cc1ccccc1)[C@H](O)C(=O)NC(Cc1ccc(C(F)(F)F)cc1)C(=O)O (some centres unmarked) ; wanted: its pIC50
6.00 to 7.00
